# TGT: lipid peroxidation in brain phospholipid liposomes (Bos taurus)
# ASSAY EXPLANATION: Tested for the inhibition of lipid peroxidation in bovine brain phospholipid liposomes
pIC50: −log10 of the molar value.
REPORTED PROPERTY: pIC50

Solved cases below.
>>> df
                         compound_structure                                       tgt  measured_value
0  O=C1c2c(O)cccc2C(=Cc2cc(O)c(O)c(O)c2)c2cccc(O)c21  lipid peroxidation in brain phospholipid liposomes (Bos taurus)            5.70
1  O=C1c2c(O)cccc2C(=Cc2ccccc2)c2cccc(O)c21  lipid peroxidation in brain phospholipid liposomes (Bos taurus)            5.10

A. CCCC(=O)C1c2cccc(O)c2C(=O)c2c(O)cccc21
B. O=C1c2c(O)cccc2C(C(=O)Cc2ccc(O)c(O)c2)c2cccc(O)c21
C. O=C1c2c(O)cccc2C(=Cc2ccc(O)cc2)c2cccc(O)c21
D. O=C1c2c(O)cccc2C(=Cc2ccc(O)c(O)c2)c2cccc(O)c21
E. O=C1c2c(O)cccc2C(=Cc2ccc([N+](=O)[O-])cc2)c2cccc(O)c21
Arrange by pIC50, high to low. A ranking is expressed here by listing the labels in the requested order. B, D, A, C, E
